pIC50 values for TACE (Homo sapiens (Human), UniProt P78536), compiled from several publications.
pIC50: −log10 of the molar value.
Endpoint Label: pIC50

### Prompt Please indicate recorded pIC50 of CC#CCOc1ccc(S(=O)(=O)CC2(C(=O)NO)CCN(C(=O)CN3CCN(C)CC3)CC2)cc1 measured with TACE (Homo sapiens (Human), UniProt P78536).
### Response 7.18

### Prompt Please indicate recorded pIC50 of CC#CCOc1ccc(S(=O)(=O)C2(C(=O)NO)CCN(C(=O)c3ccccc3)CC2)cc1 measured with TACE (Homo sapiens (Human), UniProt P78536).
### Response 7.14

### Prompt Please indicate recorded pIC50 of CC#CCOc1ccc(S(=O)(=O)Oc2c(OC)cccc2C(=O)NO)cc1 measured with TACE (Homo sapiens (Human), UniProt P78536).
### Response 7.89

### Prompt Please indicate recorded pIC50 of C#CCOc1ccc(S(=O)(=O)C2(C(=O)NO)CCN(Cc3ccc(OC)cc3)CC2)cc1 measured with TACE (Homo sapiens (Human), UniProt P78536).
### Response 6.82

[I] CC(C)C(CS(=O)(=O)N1CCc2cc(Cl)c(Cl)cc2C1)N(O)C=O (centres unmarked)
[II] O=C(NO)C1(S(=O)(=O)c2ccc(OCC#CCN3CCOCC3)cc2)CCN(Cc2ccc(Br)cc2)CC1
### Prompt Which is greater in pIC50, the first item I or the second item II ? Bench note: the answer is the label of the chosen record.
### Response I

====

pIC50 values for TACE (Homo sapiens (Human), UniProt P78536), compiled from several publications.
pIC50: −log10 of the molar value.

Consider the following illustrative entries.
### Prompt Please indicate recorded pIC50 of O=C1NC(=O)C(Cn2cccc(F)c2=O)(c2ccc3ccccc3c2)N1 (stereo not shown) measured with TACE (Homo sapiens (Human), UniProt P78536).
### Response > 7.00

### Prompt Please indicate recorded pIC50 of Cc1cccn(CC2(c3ccc(F)cc3)NC(=O)NC2=O)c1=O (stereo not shown) measured with TACE (Homo sapiens (Human), UniProt P78536).
### Response > 7.00

### Prompt Please indicate recorded pIC50 of COc1cc(N2CCN(C(=O)CC[C@H]3NC(=O)NC3=O)CC2)cc(F)c1F measured with TACE (Homo sapiens (Human), UniProt P78536).
### Response < 7.00

### Prompt Please indicate recorded pIC50 of COc1ccncc1-c1ccc(C2(Cn3cccc(C)c3=O)NC(=O)NC2=O)cc1 (stereo not shown) measured with TACE (Homo sapiens (Human), UniProt P78536).
### Response > 7.00

Continuing:
### Prompt Please indicate recorded pIC50 of Cc1cccn(CC2(c3ccc(Oc4ccc(F)cc4F)cc3)NC(=O)NC2=O)c1=O (stereo not shown) measured with TACE (Homo sapiens (Human), UniProt P78536).
### Response > 7.00

### Prompt Please indicate recorded pIC50 of Cc1cccn(CC2(c3ccc(Oc4ccccc4F)cc3)NC(=O)NC2=O)c1=O (stereo not shown) measured with TACE (Homo sapiens (Human), UniProt P78536).
### Response > 7.00

### Prompt Please indicate recorded pIC50 of CCCCCC(C)(C)C(CS(=O)(=O)N1CCc2cc(C(F)(F)F)ccc2C1)N(O)C=O (stereo not shown) measured with TACE (Homo sapiens (Human), UniProt P78536).
### Response < 5.30
